tested on: kochia; test: Test C pre-/postemergence herbicide test; assay type: in vivo, Kochia scoparia; conditions: Postemergence, 500 g ai/ha; scale 0 to 100
Kochia plant response rating for assorted molecules
Just the number, please.

Known Kochia plant response rating results, listed for orientation:
[[record]]
query_smiles = "CCn1nc(C(C)(C)C)cc1C(=O)Nc1cccc(SC(F)(F)F)c1"
experimental_endpoint = "Kochia plant response rating"
measured_number = 85

[[record]]
query_smiles = "CCNC(=O)c1cc(NC(=O)c2cc(C(C)(C)C)nn2CC)ccc1F"
experimental_endpoint = "Kochia plant response rating"
measured_number = 85

[[record]]
query_smiles = "CCn1nc(C(C)(C)C)cc1C(=O)Nc1cccc(OC(F)F)c1"
experimental_endpoint = "Kochia plant response rating"
measured_number = 100

[[record]]
query_smiles = "C#CCn1nc(C(C)(C)C)cc1C(=O)Nc1cccc(C(=O)NCC)c1"
experimental_endpoint = "Kochia plant response rating"
measured_number = 10


Shifting focus to the molecule that follows.
**Query** Which value of Kochia plant response rating has been reported for C#CCNC(=O)c1cccc(NC(=O)c2cc(C(C)(C)C)nn2CC)c1 in the records?
**Result** 100
